These data points were gathered from the supplement of paper PMC10567573.

B1: ZNF649 (parent)
chain: YHTGKTPFVCPECGQPCSQKSGLI

Variants of: B1
Assay: protein stability index of a GFP-peptide fusion (GPS, HEK-293T) (PSI 1-6); higher = more stable;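 also: lentivirally expressed fusions sorted by FACS into six bins by GFP to DsRed ratio, PSI derived from sequencing read proportions per bin multiplied by bin number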
Conditions: c terminus: a fixed tail appended
protein stability index values by entry
In your answer, state the number alone without any accompanying words.

Some solved entries appear below for comparison.
>>> data_value("YHTGKTPFVCPECGQPCSQSSGLI [K20S]")
2.53
>>> data_value("YHTGKGPFVCPECGQPCSQKSGLI [T6G]")
1.71

Input: Find the measured protein stability index of YHTNKTPFVCPECGQPCSQKSGLI [G4N] and report it.
Output: 1.67

Input: Find the measured protein stability index of YHTGKTPFVCPMCGQPCSQKSGLI [E12M] and report it.
Output: 1.23

Input: Find the measured protein stability index of YHTGKTIFVCPECGQPCSQKSGLI [P7I] and report it.
Output: 1.76

Input: Find the measured protein stability index of YHTGKTPFVCPECGQPCSQRSGLI [K20R] and report it.
Output: 2.69

Input: Find the measured protein stability index of YHTGKTPFVCPEMGQPCSQKSGLI [C13M] and report it.
Output: 2.98

Input: Find the measured protein stability index of YHTGKTPSVCPECGQPCSQKSGLI [F8S] and report it.
Output: 2.15

Input: Find the measured protein stability index of YHWGKTPFVCPECGQPCSQKSGLI [T3W] and report it.
Output: 1.48

Input: Find the measured protein stability index of YHTGKTPFVCPLCGQPCSQKSGLI [E12L] and report it.
Output: 2.16

Input: Find the measured protein stability index of YHTGKKPFVCPECGQPCSQKSGLI [T6K] and report it.
Output: 1.79

Input: Find the measured protein stability index of YHTGKTTFVCPECGQPCSQKSGLI [P7T] and report it.
Output: 2.52

Input: Find the measured protein stability index of YHTGKTPFLCPECGQPCSQKSGLI [V9L] and report it.
Output: 2.99

Input: Find the measured protein stability index of YHTGKTPFVVPECGQPCSQKSGLI [C10V] and report it.
Output: 1.81

Input: Find the measured protein stability index of YHNGKTPFVCPECGQPCSQKSGLI [T3N] and report it.
Output: 2.03

Input: Find the measured protein stability index of YHTGKTPFVCPQCGQPCSQKSGLI [E12Q] and report it.
Output: 1.9
